meta.source: ChEMBL document CHEMBL1132767

# study-system: Muscarinic acetylcholine receptor M2 (Homo sapiens, UniProt P08172)
# Sequence (P08172 whole entry): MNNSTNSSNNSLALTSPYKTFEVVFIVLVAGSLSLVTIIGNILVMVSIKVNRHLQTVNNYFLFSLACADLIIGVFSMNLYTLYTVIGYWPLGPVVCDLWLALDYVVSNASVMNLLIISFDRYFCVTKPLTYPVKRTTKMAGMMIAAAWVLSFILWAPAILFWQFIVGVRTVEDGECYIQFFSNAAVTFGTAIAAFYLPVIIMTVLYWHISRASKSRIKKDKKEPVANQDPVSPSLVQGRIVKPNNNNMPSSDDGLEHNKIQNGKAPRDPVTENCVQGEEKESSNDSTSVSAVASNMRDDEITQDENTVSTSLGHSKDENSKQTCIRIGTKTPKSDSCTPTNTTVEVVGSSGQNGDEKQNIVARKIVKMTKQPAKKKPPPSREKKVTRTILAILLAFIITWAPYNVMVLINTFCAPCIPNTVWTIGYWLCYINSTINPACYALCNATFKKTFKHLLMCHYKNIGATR
value-type: pKi
One number for each entry, as −log10 of the molar value.

These solved cases illustrate the format of a correct answer.
compound-string | pKi
C=C(c1ccc(S(=O)(=O)c2ccc(OC)cc2)cc1)C1CCN(C2CCN(C(=O)CCC)CC2)CC1 | 9.42
C=C(c1ccc(S(=O)(=O)c2ccc(OC)cc2)cc1)C1CCN(C2CCN(S(=O)(=O)CCCC)CC2)CC1 | 9.42
C=C(c1ccc(S(=O)(=O)c2ccc(OC)cc2)cc1)C1CCN(C2CCN(C(=O)OC(C)C)CC2)CC1 | 9.39

// below: pKi requested for another compound
Identify the reported pKi for the following entry. C=C(c1ccc(S(=O)(=O)c2ccc(OC)cc2)cc1)C1CCN(C2CCN(C(=O)CC)CC2)CC1
8.42
